- Tested on: SK-MEL-28 melanoma
- assayNotes: NCI-60 one-dose screen, 48 h
- measurementContext: 10 µM unless noted
Compounds without any hit were thinned out: in the full panel of roughly 83,000, 20% have a hit. Calls of active or inactive are those of the source. The calls were made as follows: active = growth percent below 10; inactive = the rest.
Write down the outcome that applies. Available outcomes: Yes = active, No = inactive

Query: # lookup: test call for CCSc1nc(Cl)c(C#N)c(-c2ccc(F)cc2)n1
Result: No

Query: # lookup: test call for COc1ccc2nc(-c3ccc(OC)c(OC)c3)cc(-c3nnc(SCC(=O)Nc4ccc(/C(C)=N\O)cc4)n3-c3ccccc3)c2c1
Result: No

Query: # lookup: test call for O=C(Nc1nc2ccc(C(F)(F)F)cc2s1)c1cc(Cl)ccc1O
Result: No

Query: # lookup: test call for CCN1CCN(Cc2ccc(NC(=O)c3cccc(C#Cc4cccc5[nH]nc(N)c45)c3)cc2C(F)(F)F)CC1
Result: Yes

Query: # lookup: test call for O=Cc1[nH]c(Sc2ccccc2)c2ccccc12
Result: No
